- TARGET ENTITY: UniProtKB Q9Y233
- PROCEDURE SUMMARY: Inhibition of recombinant human N-terminal GST-tagged PDE10A1 (2 to 789 residues) expressed in baculovirus infected Sf9 cells at 5 uM using fluorescein-labeled cAMP as substrate preincubated for 15 mins followed by substrate addition measured after 30 mins by IMAP fluorescence polarization assay relative to control
Would you mind telling me the reported inhibition of each entry?
Give a bare numeral; the unit % is implied.

inhibition of c1ccc(-c2ccc(Cn3cnc4c(N5CCOCC5)ncnc43)cc2)cc1 on UniProtKB Q9Y233?
94

Try this compound next: Cc1nc2c(N3CCOCC3)ncnc2n1Cc1ccc(-c2ccccc2)cc1
99

Then Cc1nc2c(N3CCOCC3)nccn2c1NCc1ccccc1-c1ccccc1Cl ?
87

###

- TARGET ENTITY: cAMP and cAMP-inhibited cGMP 3',5'-cyclic phosphodiesterase 10A (Homo sapiens, UniProt Q9Y233)
- Sequence (Q9Y233 whole entry, the tested form may be a part): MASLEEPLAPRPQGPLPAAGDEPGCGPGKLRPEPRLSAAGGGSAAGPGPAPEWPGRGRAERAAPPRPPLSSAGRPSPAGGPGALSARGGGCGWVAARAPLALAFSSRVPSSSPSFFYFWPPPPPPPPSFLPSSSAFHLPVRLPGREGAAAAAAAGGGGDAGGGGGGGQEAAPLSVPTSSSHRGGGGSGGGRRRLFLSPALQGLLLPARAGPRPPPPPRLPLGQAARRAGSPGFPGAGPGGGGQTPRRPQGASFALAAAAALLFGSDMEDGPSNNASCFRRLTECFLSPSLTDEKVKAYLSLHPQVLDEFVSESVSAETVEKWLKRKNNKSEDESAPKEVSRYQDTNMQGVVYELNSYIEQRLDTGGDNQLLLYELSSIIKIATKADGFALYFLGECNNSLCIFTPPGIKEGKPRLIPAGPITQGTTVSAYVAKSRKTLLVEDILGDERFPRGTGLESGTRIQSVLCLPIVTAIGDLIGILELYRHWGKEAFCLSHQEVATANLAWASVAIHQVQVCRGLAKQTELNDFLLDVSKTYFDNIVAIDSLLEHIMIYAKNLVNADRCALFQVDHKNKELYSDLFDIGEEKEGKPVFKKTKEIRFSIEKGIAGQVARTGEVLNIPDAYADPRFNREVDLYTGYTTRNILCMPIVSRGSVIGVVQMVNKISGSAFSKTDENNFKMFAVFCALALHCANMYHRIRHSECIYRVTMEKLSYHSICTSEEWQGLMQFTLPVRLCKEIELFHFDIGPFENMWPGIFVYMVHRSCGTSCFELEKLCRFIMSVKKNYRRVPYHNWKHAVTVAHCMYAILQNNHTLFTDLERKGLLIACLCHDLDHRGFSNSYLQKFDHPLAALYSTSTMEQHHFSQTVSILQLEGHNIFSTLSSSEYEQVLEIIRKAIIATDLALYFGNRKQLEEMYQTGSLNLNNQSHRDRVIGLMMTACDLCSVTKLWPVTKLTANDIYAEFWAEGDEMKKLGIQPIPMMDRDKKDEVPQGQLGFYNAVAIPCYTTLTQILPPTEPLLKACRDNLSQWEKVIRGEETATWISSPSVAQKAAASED
- PROCEDURE SUMMARY: Inhibition of recombinant human N-terminal GST-tagged PDE10A1 (2 to 789 residues) expressed in baculovirus infected Sf9 cells at 5 uM using fluorescein-labeled cAMP as substrate preincubated for 15 mins followed by substrate addition measured after 30 mins by IMAP fluorescence polarization assay relative to control
READOUT TYPE: inhibition
Answer as a quantity: numeral, then unit.

Any idea what inhibition was measured for Cc1noc(C)c1-c1ccc(CNc2c(C)nc3c(N4CCOCC4)nccn23)cc1 ?
90%

Quick one: Cc1nc2c(N3CCOCC3)nccn2c1NCc1ccccc1-c1cnn(C)c1
64%

Proceed to Cc1nc2c(N3CCOCC3)nccn2c1NCc1ccc(-c2ccc3ccccc3c2)cc1
54%

Now consider Cc1nc2c(N3CCOCC3)nccn2c1NC(=O)Cc1ccc2ccccc2c1 and answer again.
24%

// repeat for Cc1nc2c(N3CCOCC3)ncnc2n1Cc1ccc(-c2cnc3[nH]ncc3c2)cc1 and report
98%

How about this compound: COc1cc(Cn2cnc3c(N4CCOCC4)ncnc32)cc(OC)c1
85%

Now consider COc1cccc(CCn2cnc3c(N4CCOCC4)ncnc32)c1 .
20%

Then what about the compound Cc1nc2c(N3CCOCC3)nccn2c1NCc1ccccc1-c1ccc2ccccc2c1 ?
63%

Same read-out for Brc1ccc(Cn2cnc3c(N4CCOCC4)ncnc32)cc1 ?
90%

Also, Cc1nc2c(N3CCOCC3)nccn2c1NC(=O)Cc1ccc2c(c1)OCO2 please.
44%

What do you get for c1ccc2cc(Cn3cnc4c(N5CCOCC5)ncnc43)ccc2c1 ?
100%

Please answer likewise for Cc1nc2c(N3CCOCC3)nccn2c1NC(=O)Cc1ccccc1
51%

Please do the same for Cc1nc2c(N3CCOCC3)ncnc2n1Cc1ccc(Br)cc1 as well.
93%

Next record, please: Cc1noc(C)c1-c1ccccc1CNc1c(C)nc2c(N3CCOCC3)nccn12
68%

Request: Cc1nc2c(N3CCOCC3)ncnc2n1Cc1ccc(-c2cccnc2)cc1
97%

Can you check Cc1nc2c(N3CCOCC3)nccn2c1NCc1ccccc1-c1ccc(C(C)(C)C)cc1 next?
39%

Try Cc1nc2c(N3CCOCC3)nccn2c1NCc1ccc(Br)cc1 next.
77%

Same thing, different compound: Cc1cc(-c2ccc(Cn3c(C)nc4c(N5CCOCC5)ncnc43)cc2)ccn1
98%

Here is the next compound: Cc1nc2c(N3CCOCC3)nccn2c1NCc1ccccc1-c1ccncc1
70%

Now the same for Cc1nc2c(N3CCOCC3)nccn2c1NCc1ccccc1-c1ccccc1
75%

Here is the next compound: Clc1cccc(Cl)c1Cn1cnc2c(N3CCOCC3)ncnc21
70%

Next compound up: Cc1nc2c(N3CCOCC3)nccn2c1NCc1ccc(-c2cncnc2)cc1
79%

Further, for COc1ccc(CCNc2c(C)nc3c(N4CCOCC4)nccn23)cc1Br ?
81%

Now consider CCOC(=O)c1ccc(Cn2c(C)nc3c(N4CCOCC4)ncnc32)cc1 .
90%

Okay, and Cc1nc2c(N3CCOCC3)nccn2c1NCc1ccc(-c2cccnc2)cc1 ?
90%

Note, next up: Cc1nc2c(N3CCOCC3)nccn2c1NCc1ccc(-c2ccc(C(C)(C)C)cc2)cc1
38%

Next up: COc1ccc(CCNc2c(C)nc3c(N4CCOCC4)nccn23)c(Br)c1
92%

What do you get for Cc1nc2c(N3CCOCC3)nccn2c1NCc1ccccc1-c1cccnc1 ?
76%

Entry O=C(Cn1cnc2c(N3CCOCC3)ncnc21)c1ccccc1 please
11%

Okay, and COc1ccc(CCNc2c(C)nc3c(N4CCOCC4)nccn23)c(-c2ccccc2)c1 ?
93%

Same question for Cc1nc2c(N3CCOCC3)ncnc2n1Cc1ccc(C(=O)Nc2ccccc2)cc1 please.
96%

Please answer likewise for Cc1nc2c(N3CCOCC3)nccn2c1NCc1ccccc1-c1cncnc1
61%

Let us now turn to c1ccc(Cn2cnc3c(N4CCOCC4)ncnc32)cc1
66%

Try this compound next: Cc1noc(C)c1-c1ccc(Cn2c(C)nc3c(N4CCOCC4)ncnc32)cc1
96%

Try the compound COc1ccc(CCNc2c(C)nc3c(N4CCOCC4)nccn23)cc1-c1ccccc1
80%

Can you check Cc1ccc(-c2ccccc2CNc2c(C)nc3c(N4CCOCC4)nccn23)cc1 next?
57%

Request: Cc1nc2c(N3CCOCC3)nccn2c1NCc1ccc(-c2cnn(C)c2)cc1
88%

Now try Cc1nc2c(N3CCOCC3)nccn2c1NCCc1ccc2c(c1)OCO2 .
82%
